target-under-test: human Lung Tryptase
assay: Tryptase IC50 Method
condition-summary: 37° C., 1.0 nM enzyme, 500 μM substrate
Method: The enzyme reaction is started by the addition of enzyme ([E]: 1.0 nM human Lung Tryptase; Cortex Biochem CP3033). Data is collected over a period of 30 min. and the initial rate of substrate hydrolysis (Vo (mOD/min)) is calculated. Inhibition is calculated by comparing to wells containing no inhibitor (vehicle) and IC50 s are determined using a four parameter fit logistics model. […] Data is collected over a period of 30 min. and the initial rate of substrate hydrolysis (Vo (mOD/min)) is calculated. […]

# smi, inequality-symbol, IC50 / nM
measured = [
    ("CN[C@H](Cc1ccccc1)C(=O)N1CCC[C@H]1C(=O)N[C@@H](CCCNC(=N)N)C(=O)c1nc2ccc(C(=O)OC)cc2s1", "=", 1.7),
    ("CN[C@H](Cc1ccccc1)C(=O)N1CCC[C@H]1C(=O)N[C@@H](CCCNC(=N)N)C(=O)c1nc2c(ccc3ccccc32)s1", "=", 33.7),
    ("N=C(N)NCCC[C@H](NC(=O)C1CCCC1)C(=O)c1nc2ccccc2s1", "=", 828),
    ("CCCC[C@H](NC(=O)[C@@H]1CCCN1C(=O)[C@@H](Cc1ccccc1)NC)C(=O)c1nc2ccccc2s1", ">", 10000),
    ("CN[C@H](Cc1c(F)c(F)c(F)c(F)c1F)C(=O)N1CCC[C@H]1C(=O)N[C@@H](CCCNC(=N)N)C(=O)c1nc2ccccc2s1", "=", 2.7),
]
